The following compounds are shown together with reported melting point values.

compound | experimental readout | result
Cc1cc(-c2ccccc2O)n(-c2ccccc2)n1 | melting point | 211 to 214 °C
CN1C(=O)c2cccnc2Nc2ncccc21 | melting point | 230 to 232 °C
CC(=O)OCC1(COC(C)=O)CC1(Br)Cn1cc(C)c(=O)[nH]c1=O (configuration not stated) | melting point | 197 to 198 °C

// next item, melting point requested
**Query** Recorded melting point of O=[N+]([O-])c1ccc(-c2ccc(I)cc2C(F)(F)F)c(C(F)(F)F)c1 , please.
**Result** 67 to 68 °C

---

Known melting point of a selection of compounds

Some solved entries appear below for comparison.
smiles | experimental readout | result
COC(=O)C(O)(c1ccc(OC)cc1)c1ccc(OC)cc1 | melting point | 110 °C
CS(=O)(=O)c1ccc(-c2cc(C(F)(F)F)nn2-c2ccc(CO)cc2)cc1 | melting point | 129 to 133 °C
COCCOCCOCCOCCNS(=O)(=O)c1ccc(NC=C2C(=O)Nc3ccc4ncsc4c32)cc1 | melting point | 158 to 159 °C
CS(=O)(=O)Nn1c(=O)[nH]c2cc(C(F)(F)F)c(N3CCC3)cc2c1=O | melting point | 266 to 283 °C

Could you now consider this next compound?
**Query** GET /values?readout=melting point&item= COC(=O)c1ccc(CC#N)cc1S(=O)(=O)NC(C)(C)C
**Result** 86 to 88 °C
